- Protocol description: Lipophilicity (LogD)
- Format: physicochemical
- Run parameters: pH 7.4; obtained amyloid probe

{"columns": ["Smiles str", "logD"],
 "data": [
  ["CN(C)c1ccc(-n2nc3ccc(I)cc3n2)cc1", 2.7]
]}
